# System: VEGFR2
# assay remarks: EC50 of VEGFR2 siRNA candidates before and after modification, knockdown in cells
# Assay type: cell-based, human
# condition label: PANC-1 cells, 24 h, 24well; read-out: EC50 (nM, 24 h, 24well) Pancreatic cancer PANC-1
Oligonucleotides are written 5' to 3', each unit as a sugar letter and its base; * is a phosphorothioate linkage, no mark a phosphodiester; rarer units and linkages stand in square brackets, end groups in braces. Plain capitals give the bases only. {P} = phosphorylation (indicated by P); d = 2'-deoxy (DNA); m = 2'-O-methyl; r = 2'-OH (RNA); f = 2'-fluoro
assay endpoint: EC50 (nM)
Give the value in nM but do not write nM after it.

Given VEGFR2-21-h1#: siRNA targeting VEGFR2 mRNA; sense SEQ ID 60, antisense SEQ ID 103 (sense GCCUAGUGUUUCUCUUGAUTT; antisense AUCAAGAGAAACACUAGGCTT; sugars from the 5' end r19 d2, backbone not given here) , report its EC50 on VEGFR2. 0.92

Enter measured EC50, system VEGFR2, for the substance shown: VEGFR2-21-hm18#: siRNA targeting VEGFR2 mRNA; sense SEQ ID 77, antisense SEQ ID 120 (sense GGAAAAAACAAAACUGUAATT; antisense UUACAGUUUUGUUUUUUCCTT; sugars from the 5' end r19 d2, backbone not given here) 3.81

Write EC50 of VEGFR2-21-h7#mod: Modified (2′F, 2′OME, phosphorylation) siRNA targeting VEGFR2; sense SEQ ID 138, antisense SEQ ID 146 (sense mGmCmUmGmAmCfAfUfGmUmAmCmGmGmUmCmUmAmUdTdT; antisense {P}-mAfUmAmGmAmCmCmGmUmAmCmAmUfGmUmCmAmGmCdTdT) ; system used: VEGFR2 384

Under VEGFR2, report EC50 for VEGFR2-21-h2#mod: Modified (2′F, 2′OME, phosphorylation) siRNA targeting VEGFR2; sense SEQ ID 132, antisense SEQ ID 140 (sense mGmGmUmCmCmAfUfUfUmCmAmAmAmUmCmUmCmAmAdTdT; antisense {P}-mUfUmGmAmGmAmUmUmUmGmAmAmAfUmGmGmAmCmCdTdT) 0.08
